- Tested on: HOP-62
- assay_explanation: panel of 60 human tumor cell lines, growth inhibition (Non-Small Cell Lung Cancer)
- condition_label: HOP-62; Log10 Concentration −5.0
Can you tell me Percent Growth for the items I'm about to list?
Answers are plain numbers, in %.

[[record]]
smiles_structure = "C=C1C(=O)O[C@H]2[C@H]1CC/C(COC(=O)CCC(=O)NCc1ccc(Cl)nc1)=C\\CC[C@@]1(C)O[C@@H]21"
quantitative_readout = 95

[[record]]
smiles_structure = "C=C1C(=O)O[C@H]2[C@H]1CC/C(COC(=O)NC)=C\\CC[C@@]1(C)O[C@@H]21"
quantitative_readout = 72

[[record]]
smiles_structure = "C=C1C(=O)O[C@H]2[C@H]1CC/C(COC(=O)CCC(=O)N1CCC(C)CC1)=C\\CC[C@@]1(C)O[C@@H]21"
quantitative_readout = 78


Shift focus to the following entry.
Report measured Percent Growth; entry is C=C1C(=O)O[C@H]2[C@H]1CC/C(COC(=O)NCCc1ccccn1)=C\CC[C@@]1(C)O[C@@H]21
91

====

- Tested on: M14
- assay_explanation: panel of 60 human tumor cell lines, growth inhibition (Melanoma)
- condition_label: M14; Log10 Concentration −6.0
observation_type: Percent Growth (%)
Numbers only, in %.

[[record]]
compound = "C=C1C(=O)O[C@H]2[C@H]1CC/C(COC(=O)NCCO)=C\\CC[C@@]1(C)O[C@@H]21 [JVM 2-50]"
quantitative_readout = 92


Quick batch: Percent Growth for everything below.
1. C=C1C(=O)O[C@H]2[C@H]1CC/C(COC(=O)NCCN1CCCCC1)=C\CC[C@@]1(C)O[C@@H]21 [JVM 2-13]
2. C=C1C(=O)O[C@H]2[C@H]1CC/C(COC(=O)NC)=C\CC[C@@]1(C)O[C@@H]21 [JVM 2-57]
3. C=C1C(=O)O[C@H]2[C@H]1CC/C(COC(=O)CCC(=O)NCc1ccc(Cl)nc1)=C\CC[C@@]1(C)O[C@@H]21 [JVM 96]

[91, 87, 96]

====

- Tested on: OVCAR-5
- assay_explanation: panel of 60 human tumor cell lines, growth inhibition (Ovarian Cancer)
- condition_label: Homo sapiens, OVCAR-5
Can you tell me GI50 for the items I'm about to list?
Quote the value and follow it with the unit of measurement.

Guide cases for GI50, answers given:
[[record]]
compound = "C=C1C(=O)O[C@H]2[C@H]1CC/C(COC(=S)n1ccnc1)=C\\CC[C@@]1(C)O[C@@H]21 [JVM 66]"
observation_type = "GI50"
result = "13.5 µM"

[[record]]
compound = "C=C1C(=O)O[C@H]2[C@H]1CC/C(COC(=O)OCCN(C)C)=C\\CC[C@@]1(C)O[C@@H]21 [JVM 2-35]"
observation_type = "GI50"
result = "13.1 µM"

[[record]]
compound = "C=C1C(=O)O[C@H]2[C@H]1CC/C(COC(=O)Nc1n[nH]c(SC)n1)=C\\CC[C@@]1(C)O[C@@H]21 [JVM 64]"
observation_type = "GI50"
result = "2.18 µM"


Shift focus to the following entry.
Report measured GI50; entry is C=C1C(=O)O[C@H]2[C@H]1CC/C(COC(=O)NCCCCCCO)=C\CC[C@@]1(C)O[C@@H]21 [JVM 2-31]
13.4 µM

====

- Tested on: NCI-H522
- assay_explanation: panel of 60 human tumor cell lines, growth inhibition (Non-Small Cell Lung Cancer)
- condition_label: Homo sapiens, NCI-H522
Can you tell me GI50 for the items I'm about to list?
Answers are plain numbers, in nM.

Quick batch: GI50 for everything below.
1. C=C1C(=O)O[C@H]2[C@H]1CC/C(COC(=O)OC)=C\CC[C@@]1(C)O[C@@H]21 [JVM 2-40]
2. C=C1C(=O)O[C@H]2[C@H]1CC/C(COC(=O)OCCCN1CCCCC1)=C\CC[C@@]1(C)O[C@@H]21 [JVM 2-26]
3. C=C1C(=O)O[C@H]2[C@H]1CC/C(COC(=O)NCCN1CCCC1)=C\CC[C@@]1(C)O[C@@H]21 [JVM 59]
4. C=C1C(=O)O[C@H]2[C@H]1CC/C(COC(=O)OCCN(C)C)=C\CC[C@@]1(C)O[C@@H]21 [JVM 2-35]

[1070, 1410, 1780, 1500]

====

- Tested on: T-47D
- assay_explanation: panel of 60 human tumor cell lines, growth inhibition (Breast Cancer)
- condition_label: Homo sapiens, T47D, read-out: TGI
observation_type: IC (TGI) (µM)
One number for each entry, in µM.

[[record]]
smiles_structure = "C=C1C(=O)O[C@H]2[C@H]1CC/C(COC(=O)OC)=C\\CC[C@@]1(C)O[C@@H]21"
observation_type = "IC (TGI)"
unit_text = "µM"
quantitative_readout = 12.5

[[record]]
smiles_structure = "C=C1C(=O)O[C@H]2[C@H]1CC/C(COC(=O)NCCN1CCCC1)=C\\CC[C@@]1(C)O[C@@H]21"
observation_type = "IC (TGI)"
unit_text = "µM"
quantitative_readout = 19.2

[[record]]
smiles_structure = "C=C1C(=O)O[C@H]2[C@H]1CC/C(COC(=S)n1ccnc1)=C\\CC[C@@]1(C)O[C@@H]21"
observation_type = "IC (TGI)"
unit_text = "µM"
quantitative_readout = 42.4


Shift focus to the following entry.
Report measured IC (TGI); entry is C=C1C(=O)O[C@H]2[C@H]1CC/C(COC(=O)NCCN1CCOCC1)=C\CC[C@@]1(C)O[C@@H]21
23.2

====

- System: HOP-92
observation_type: CC50 (µM)
Give bare numbers, in µM.

[[record]]
compound = "C=C1C(=O)O[C@H]2[C@H]1CC/C(COC(=O)NCCN1CCCCC1)=C\\CC[C@@]1(C)O[C@@H]21 [JVM 2-13]"
unit_text = "µM"
quantitative_readout = 42.1

[[record]]
compound = "C=C1C(=O)O[C@H]2[C@H]1CC/C(COC(=O)NCCO)=C\\CC[C@@]1(C)O[C@@H]21 [JVM 2-50]"
unit_text = "µM"
quantitative_readout = 42.3

[[record]]
compound = "C=C1C(=O)O[C@H]2[C@H]1CC/C(COC(=O)N1CCC(F)(F)CC1)=C\\CC[C@@]1(C)O[C@@H]21 [JVM 2-66]"
unit_text = "µM"
quantitative_readout = 11.1


Quick batch: CC50 for everything below.
1. C=C1C(=O)O[C@H]2[C@H]1CC/C(COC(=O)CCC(=O)N1CCC(C)CC1)=C\CC[C@@]1(C)O[C@@H]21 [JVM 2-70]
2. C=C1C(=O)O[C@H]2[C@H]1CC/C(COC(=O)N1CCN(C)CC1)=C\CC[C@@]1(C)O[C@@H]21 [JVM 2-44]
3. C=C1C(=O)O[C@H]2[C@H]1CC/C(COC(=O)NC)=C\CC[C@@]1(C)O[C@@H]21 [JVM 2-57]

36.4
44.3
29.7

====

Can you tell me Percent Growth for the items I'm about to list?
- Tested on: SNB-75
- assay_explanation: panel of 60 human tumor cell lines, growth inhibition (CNS Cancer)
- condition_label: SNB-75; Log10 Concentration −7.0
Numbers only, in %.

[[record]]
smiles_structure = "C=C1C(=O)O[C@H]2[C@H]1CC/C(COC(=O)NCCO)=C\\CC[C@@]1(C)O[C@@H]21"
observation_type = "Percent Growth"
quantitative_readout = 79


Quick batch: Percent Growth for everything below.
1. C=C1C(=O)O[C@H]2[C@H]1CC/C(COC(=O)NCCN1CCCCC1)=C\CC[C@@]1(C)O[C@@H]21
2. C=C1C(=O)O[C@H]2[C@H]1CC/C(COC(=O)NC)=C\CC[C@@]1(C)O[C@@H]21
3. C=C1C(=O)O[C@H]2[C@H]1CC/C(COC(=O)N1CCN(C)CC1)=C\CC[C@@]1(C)O[C@@H]21

75
76
68

====

Below are CC50 values measured for LOX IMVI.
Numbers only, in µM.

Guide cases for CC50, answers given:
[[record]]
compound = "C=C1C(=O)O[C@H]2[C@H]1CC/C(COC(=O)NCCO)=C\\CC[C@@]1(C)O[C@@H]21 [JVM 2-50]"
tested_on = "LOX IMVI"
quantitative_readout = 57.1

[[record]]
compound = "C=C1C(=O)O[C@H]2[C@H]1CC/C(COC(=O)N1CCC(F)(F)CC1)=C\\CC[C@@]1(C)O[C@@H]21 [JVM 2-66]"
tested_on = "LOX IMVI"
quantitative_readout = 22.5

[[record]]
compound = "C=C1C(=O)O[C@H]2[C@H]1CC/C(COC(=O)N1CCN(C)CC1)=C\\CC[C@@]1(C)O[C@@H]21 [JVM 2-44]"
tested_on = "LOX IMVI"
quantitative_readout = 55.9

[[record]]
compound = "C=C1C(=O)O[C@H]2[C@H]1CC/C(COC(=O)NCCN1CCCCC1)=C\\CC[C@@]1(C)O[C@@H]21 [JVM 2-13]"
tested_on = "LOX IMVI"
quantitative_readout = 56.2

[[record]]
compound = "C=C1C(=O)O[C@H]2[C@H]1CC/C(COC(=O)CCC(=O)N1CCC(C)CC1)=C\\CC[C@@]1(C)O[C@@H]21 [JVM 2-70]"
tested_on = "LOX IMVI"
quantitative_readout = 41


Shift focus to the following entry.
Report measured CC50; entry is C=C1C(=O)O[C@H]2[C@H]1CC/C(COC(=O)NC)=C\CC[C@@]1(C)O[C@@H]21 [JVM 2-57]
43.2
